test system: Bacillus cereus; experiment: Bactericidal activity against Bacillus cereus clinical isolate after 72 hrs by microdilution method; assay type: functional
Provide the reported MBC99.5 of each item.
Write the numeric value and append its unit.

COMPOUND	ASSAY_SYSTEM	VALUE_OBSERVED
CNc1nc(C)c(-c2cc(-c3ccccc3)nc(N)n2)s1	Bacillus cereus	6.74 ×10⁻² umol/ml

Go through the list and state MBC99.5 for each entry.
1. CCNc1nc(C)c(C2=NN(c3ccccc3)C(c3ccccc3)C2)s1 (configuration not stated)
2. CNc1nc(C)c(C2=NN(c3ccccc3)C(c3ccc(OC)cc3)C2)s1 (configuration not stated)
3. CNc1nc(C)c(C2=NN(c3ccccc3)C(c3ccc(F)cc3)C2)s1 (configuration not stated)
4. CN[C@@H]1[C@H](O[C@H]2[C@H](O[C@H]3[C@H](O)[C@@H](O)[C@H](N=C(N)N)[C@@H](O)[C@@H]3N=C(N)N)O[C@@H](C)[C@]2(O)C=O)O[C@@H](CO)[C@H](O)[C@H]1O
5. CNc1nc(C)c(C2=NN(c3ccccc3)C(c3ccc([N+](=O)[O-])cc3)C2)s1 (configuration not stated)
6. Cc1nc(-c2ccccc2)sc1C1=NN(c2ccccc2)C(c2ccccc2)C1 (configuration not stated)

Result:
27.6 ×10⁻² umol/ml
26.4 ×10⁻² umol/ml
27.3 ×10⁻² umol/ml
8.6 ×10⁻² umol/ml
25.4 ×10⁻² umol/ml
30.4 ×10⁻² umol/ml

----------
tested on: Talaromyces funiculosus; experiment: Fungicidal activity against Penicillium funiculosum ATCC 36839 after 72 hrs by microdilution method; type: functional
MEASURE_NAME: log10(MFC99.5) (log10 of the value in ×10⁻² umol/ml)
Friendly reminder: values = log10 of MFC99.5, unit ×10⁻² umol/ml.

Worked cases, answers included:
>>> df
                                   compound    measure_name  value_observed
0  CC(=O)N1CCN(c2ccc(OCC3COC(Cn4ccnc4)(c4ccc(Cl)cc4Cl)O3)cc2)CC1 (stereo not drawn)  log10(MFC99.5)            1.98
1  CNc1nc(C)c(C2=NN(c3ccccc3)C(c3ccc(OC)cc3)C2)s1 (stereo not drawn)  log10(MFC99.5)            1.57
2  CNc1nc(C)c(C2=NN(c3ccccc3)C(c3ccccc3)C2)s1 (stereo not drawn)  log10(MFC99.5)            1.60

Go through the list and state log10(MFC99.5) for each entry.
1. CNc1nc(C)c(C2=NN(c3ccccc3)C(c3ccc(C)cc3)C2)s1 (stereo not drawn)
2. c1ccc(-c2ccc(C(c3ccccc3)n3ccnc3)cc2)cc1 (stereo not drawn)
3. CNc1nc(C)c(C2=NN(c3ccccc3)C(c3ccc(Cl)cc3)C2)s1 (stereo not drawn)
4. CNc1nc(C)c(-c2cc(-c3ccccc3)nc(N)n2)s1

Result:
1: 1.65; 2: 1.90; 3: 1.56; 4: 0.83

Query: I'd like to know its log10(MFC99.5). The compound in question is CCNc1nc(C)c(C2=NN(c3ccccc3)C(c3ccccc3)C2)s1 (stereo not drawn)
Result: 1.49
